PROTOCOL_DESCRIPTION: chemical genetic growth profiling, strain panel (AID 1159580);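 note: tested at 20 µM; growth read once vehicle control cultures reached saturation at 30 °C; 1 = growth at the plate median or of vehicle wells; lower values mean less growth of the strain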
CONDITION: S. cerevisiae deletion strains, growth OD, locus YHR200W, strain rpn10, active compounds read low
Screen size: about 5,500 compounds; about 2,000 (36%) were called active. Inconclusive results (about 18%) are left out. The list shows a part of the results. Where a SMILES comes first, the peptide text is derived from it. Side-chain parts run from the residue outwards. [ ]: non-standard residue; d: D form. The star is where a group is joined. X1 = CCC(C)C(N)C1=NC(C(=O)*)CS1; Orn = NCCC[CH](N)C(=O)O
Catalogue of normalized growth values

{"COMPOUND": "CCC1(CC)C(=O)C=CNC1=O", "normalized growth": 1.01}
{"COMPOUND": "NC(N)=NC(N)=Nc1ccccc1", "normalized growth": 0.997}
{"COMPOUND": "CC(=O)NO", "normalized growth": 0.991}
{"COMPOUND": "O=C(O)c1cc([N+](=O)[O-])ccc1NCCCc1ccccc1", "normalized growth": 0.922}
{"COMPOUND": "Cc1cc(=O)n(-c2ccccc2)n1C", "normalized growth": 1}
{"COMPOUND": "CC1=CC(=O)C2=C(C)CC(O)C3C(C)C(=O)OC3C12 (stereo not drawn)", "normalized growth": 1.02}
{"COMPOUND": "CC[C@@H](CO)NC(=O)[C@@H]1C=C2c3cccc4[nH]cc(c34)C[C@H]2N(C)C1", "normalized growth": 0.978}
{"COMPOUND": "COc1c2occc2c(OC)c2c(=O)cc(C)oc12", "normalized growth": 1.04}
{"COMPOUND": "COc1c2ccoc2cc2oc(C)cc(=O)c12", "normalized growth": 0.953}
{"COMPOUND": "O=C(O)c1cc(=O)c2cccc(O)c2[nH]1", "normalized growth": 0.984}
{"COMPOUND": "O=c1oc2c(O)c(O)cc3c(=O)oc4c(O)c(O)cc1c4c23", "normalized growth": 0.712}
{"COMPOUND": "CO[C@H]1C[C@H](O[C@H]2[C@H](C)[C@@H](OC3O[C@H](C)C[C@H](N(C)C)[C@H]3OC(C)=O)[C@@H](C)C[C@]3(CO3)C(=O)[C@H](C)[C@@H](OC(C)=O)[C@@H](C)[C@@H](C)OC(=O)[C@@H]2C)O[C@@H](C)[C@@H]1OC(C)=O (stereo partly drawn)", "normalized growth": 0.992}
{"COMPOUND": "COc1cnc(NS(=O)(=O)c2ccc(N)cc2)nc1", "normalized growth": 0.969}
{"COMPOUND": "CC1(C)C=Cc2cc3ccc(=O)oc3cc2O1", "normalized growth": 0.954}
{"COMPOUND": "c1ccc([C@H]2CN3CCSC3=N2)cc1", "normalized growth": 1}
{"COMPOUND": "COC(=O)[C@]1(C)CC[C@]2(C)CC[C@]3(C)C4=CC=C5C(=CC(=O)C(O)=C5C)[C@]4(C)CC[C@@]3(C)[C@@H]2C1", "normalized growth": 0.929}
{"COMPOUND": "Cc1c(NC(=O)c2cccnc2)c(=O)n(-c2ccccc2)n1C", "normalized growth": 0.992}
{"COMPOUND": "CCC(C)C(N)C1=NC(C(=O)NC(CC(C)C)C(=O)NC(CCC(=O)O)C(=O)NC(C(=O)NCCCCC2NC(=O)C(CC(N)=O)NC(=O)C(CC(=O)O)NC(=O)C(Cc3cnc[nH]3)NC(=O)C(Cc3ccccc3)NC(=O)C(C(C)CC)NC(=O)C(CCCN)NC2=O)C(C)CC)CS1 (stereo not drawn) (cyclo(DNK([Ile-Glu-Leu-X1])[Orn]IFH); configuration not given here)", "normalized growth": 0.984}
{"COMPOUND": "COc1ccc2c(c1)[C@]13CCCC[C@H]1[C@H](C2)N(C)CC3", "normalized growth": 0.996}
{"COMPOUND": "CC(=O)c1cc2c(cc1O)OC(C)(C)C=C2", "normalized growth": 0.97}
{"COMPOUND": "O=C(O)c1cc(=O)c2c(Cl)cc(Cl)cc2[nH]1", "normalized growth": 1.01}
{"COMPOUND": "CC1(C)C(=O)[C@@H]2C[C@@]3(O)C4=CC(=O)O[C@@H](c5ccoc5)[C@]4(C)CCC3[C@@](C)(C2=O)[C@H]1CC(=O)O (stereo partly drawn)", "normalized growth": 0.988}
{"COMPOUND": "NC(=O)NO", "normalized growth": 0.992}
{"COMPOUND": "COc1cc2cc3c4cc(OC)c(OC)cc4cc[n+]3c(C)c2cc1OC", "normalized growth": 0.994}
{"COMPOUND": "NCCc1c[nH]c2ccccc12", "normalized growth": 1}
{"COMPOUND": "CC[C@H]1CN2CCc3cc(OC)c(OC)cc3C2C[C@@H]1CC1NCCc2cc(OC)c(OC)cc21 (stereo partly drawn)", "normalized growth": 1.01}
{"COMPOUND": "CCc1cccc2c3c([nH]c12)C(CC)(CC(=O)O)OCC3 (stereo not drawn)", "normalized growth": 1}
{"COMPOUND": "CN(C)CCc1c[nH]c2ccc(CS(=O)(=O)N3CCCC3)cc12", "normalized growth": 0.991}

---

PROTOCOL_DESCRIPTION: chemical genetic growth profiling, strain panel (AID 1159580);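 note: tested at 20 µM; growth read once vehicle control cultures reached saturation at 30 °C; 1 = growth at the plate median or of vehicle wells; lower values mean less growth of the strain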
CONDITION: S. cerevisiae deletion strains, growth OD, locus YML124C, strain tub3
Screen size: about 5,500 compounds; about 2,000 (36%) were called active. Inconclusive results (about 18%) are left out. No stated cut-off is given here; in the data, active means normalized growth mostly below about 0.91 (no sharp cut-off); inconclusive means no clear call, values can overlap the other calls; inactive means mostly above about 0.92. Some of the results follow. *1 amine or outer side, *2 acyl side, *3 side chain or, on linkers, in order; H or OH if unused. Where a SMILES comes first, the peptide text is derived from it. Bridges are numbered along the chain shown (N, C = ends). Side-chain parts run from the residue outwards. [ ]: non-standard residue; d: D form. The star is where a group is joined. ξ: configuration not given here. ΔAla(E,3-NHCONH2) = NC(=O)N/C=C(/N)C(=O)O; X2 = NC1=NCCC(C(N[*:1])C(=O)[*:2])N1; Octanoyl(6-Me) = CCC(C)CCCCC(=O)*; X1 = CCC(C)C(N)C1=NC(C(=O)*)CS1; ξβ3hOrn = NCCCC(N)CC(=O)*; Orn = NCCC[CH](N)C(=O)O; Dab = NCC[CH](N)C(=O)O; Dap = NC[CH](N)C(=O)O
Classes used: T = active, F = inactive

{"COMPOUND": "CCc1cccc2c3c([nH]c12)C(CC)(CC(=O)O)OCC3 (configuration not stated)", "CLASSIFICATION": "F"}
{"COMPOUND": "COc1cc(NS(=O)(=O)c2ccc(N)cc2)ncn1", "CLASSIFICATION": "F"}
{"COMPOUND": "NCCCC(N)CC(=O)NCC1NC(=O)C(CO)NC(=O)C(N)CNC(=O)C(C2CCN=C(N)N2)NC(=O)/C(=C\\NC(N)=O)NC1=O (stereo not drawn) (H-[Dap]S[Dap](ξβ3hOrn)[ΔAla(E,3-NHCONH2)][X2]; lactam 1-C; configuration not given here)", "CLASSIFICATION": "F"}
{"COMPOUND": "CC(=O)Oc1cccc(C(=O)O)c1OC(C)=O", "CLASSIFICATION": "F"}
{"COMPOUND": "COc1cccc(O)c1O", "CLASSIFICATION": "F"}
{"COMPOUND": "OC(c1cc(C(F)(F)F)nc2c(C(F)(F)F)cccc12)C1CCCCN1 (configuration not stated)", "CLASSIFICATION": "F"}
{"COMPOUND": "C=C(C)[C@@H]1CC[C@]2(CO)CC[C@]3(C)[C@H](CCC4[C@@]5(C)CC[C@H](O)C(C)(C)C5CC[C@]43C)C12 (some centres not stated)", "CLASSIFICATION": "F"}
{"COMPOUND": "CN(C)CCc1c[nH]c2ccc(CS(=O)(=O)N3CCCC3)cc12", "CLASSIFICATION": "F"}
{"COMPOUND": "CC1=CC2C(C(C)C)CCC(C)(O)C2CC1 (configuration not stated)", "CLASSIFICATION": "F"}
{"COMPOUND": "COc1ccc(C(=O)c2ccccc2)c(O)c1O", "CLASSIFICATION": "F"}
{"COMPOUND": "O=C(O)c1cc([N+](=O)[O-])ccc1NCCCc1ccccc1", "CLASSIFICATION": "F"}
{"COMPOUND": "O=C(CCc1ccc(O)cc1)c1c(O)cc(O)cc1O[C@@H]1O[C@H](CO)[C@@H](O)[C@H](O)[C@H]1O", "CLASSIFICATION": "F"}
{"COMPOUND": "CCOC([O-])=Nc1c[n+](N2CCOCC2)no1", "CLASSIFICATION": "F"}
{"COMPOUND": "C1CCC(C(CC2CCCCN2)C2CCCCC2)CC1 (configuration not stated)", "CLASSIFICATION": "F"}
{"COMPOUND": "CCOc1ccc(C(=O)c2cc(O)c(OC)c(OC)c2O)cc1", "CLASSIFICATION": "F"}
{"COMPOUND": "CC(=O)OCC1=C(C(=O)O)N2C(=O)[C@@H](NC(=O)CCCC(N)C(=O)O)C2SC1 (some centres not stated)", "CLASSIFICATION": "F"}
{"COMPOUND": "NC(=O)N1c2ccccc2C=Cc2ccccc21", "CLASSIFICATION": "F"}
{"COMPOUND": "COc1ccc2c(c1OC)OC[C@@H](c1ccc(OC)c(OC)c1OC)C2", "CLASSIFICATION": "F"}
{"COMPOUND": "COc1ccc([C@H]2COc3c(ccc(O)c3OC)C2)c(OC)c1O", "CLASSIFICATION": "F"}
{"COMPOUND": "c1ccc([C@H]2CN3CCSC3=N2)cc1", "CLASSIFICATION": "F"}
{"COMPOUND": "CN1C(=O)CCS(=O)(=O)C1c1ccc(Cl)cc1 (configuration not stated)", "CLASSIFICATION": "F"}
{"COMPOUND": "CC(=O)[O][Hg][c]1ccccc1", "CLASSIFICATION": "T"}
{"COMPOUND": "CC(=O)CC1CCCCN1 (configuration not stated)", "CLASSIFICATION": "F"}
{"COMPOUND": "CC1(C)S[C@@H]2[C@H](NC(=O)Cc3ccccc3)C(=O)N2[C@H]1C(=O)O", "CLASSIFICATION": "F"}
{"COMPOUND": "Cc1onc(-c2ccccc2Cl)c1C(=O)N[C@@H]1C(=O)N2[C@@H]1SC(C)(C)[C@@H]2C(=O)O", "CLASSIFICATION": "F"}
{"COMPOUND": "CO[C@H]1C[C@H](O[C@H]2[C@H](C)[C@@H](OC3O[C@H](C)C[C@H](N(C)C)[C@H]3OC(C)=O)[C@@H](C)C[C@]3(CO3)C(=O)[C@H](C)[C@@H](OC(C)=O)[C@@H](C)[C@@H](C)OC(=O)[C@@H]2C)O[C@@H](C)[C@@H]1OC(C)=O (some centres not stated)", "CLASSIFICATION": "F"}
{"COMPOUND": "O=C(OC[C@H]1O[C@H](OC(=O)c2cc(O)c(O)c(OC(=O)c3cc(O)c(O)c(O)c3)c2)[C@H](OC(=O)c2cc(O)c(O)c(OC(=O)c3cc(O)c(O)c(O)c3)c2)[C@@H](OC(=O)c2cc(O)c(O)c(OC(=O)c3cc(O)c(O)c(O)c3)c2)[C@@H]1OC(=O)c1cc(O)c(O)c(OC(=O)c2cc(O)c(O)c(O)c2)c1)c1cc(O)c(O)c(OC(=O)c2cc(O)c(O)c(O)c2)c1", "CLASSIFICATION": "T"}
{"COMPOUND": "CCC(C)CCCCC(=O)NC(CCN)C(=O)NC(C(=O)NC(CCN)C(=O)NC1CCNC(=O)C(C(C)O)NC(=O)C(CCN)NC(=O)C(CCN)NC(=O)C(CC(C)C)NC(=O)C(Cc2ccccc2)NC(=O)C(CCN)NC1=O)C(C)O (configuration not stated) ({Octanoyl(6-Me)}-[Dab]T[Dab][Dab][Dab]FL[Dab][Dab]T; lactam 4-C; configuration not given here)", "CLASSIFICATION": "F"}
{"COMPOUND": "CCC(C)C(N)C1=NC(C(=O)NC(CC(C)C)C(=O)NC(CCC(=O)O)C(=O)NC(C(=O)NCCCCC2NC(=O)C(CC(N)=O)NC(=O)C(CC(=O)O)NC(=O)C(Cc3cnc[nH]3)NC(=O)C(Cc3ccccc3)NC(=O)C(C(C)CC)NC(=O)C(CCCN)NC2=O)C(C)CC)CS1 (stereo not drawn) (cyclo(DNK([Ile-Glu-Leu-X1])[Orn]IFH); configuration not given here)", "CLASSIFICATION": "F"}
{"COMPOUND": "CC(=O)OCC(=O)[C@@]12OC3(CCCC3)O[C@@H]1CC1C3CCC4=CC(=O)C=C[C@]4(C)[C@@]3(F)[C@@H](O)C[C@@]12C (some centres not stated)", "CLASSIFICATION": "F"}
{"COMPOUND": "COc1cc(O)cc(OC)c1OC", "CLASSIFICATION": "F"}
{"COMPOUND": "Cc1onc(-c2ccccc2)c1C(=O)NC1C(=O)N2[C@@H]1SC(C)(C)[C@@H]2C(=O)O (some centres not stated)", "CLASSIFICATION": "F"}
